# target_desc: AuroraA-TPX2 (Homo sapiens, UniProt O14965)
# Construct: 20 μL of AuroraA-TPX2 KD GST for a final volume of about 41 μL; GST
# Sequence (O14965 133-383 limits assumed): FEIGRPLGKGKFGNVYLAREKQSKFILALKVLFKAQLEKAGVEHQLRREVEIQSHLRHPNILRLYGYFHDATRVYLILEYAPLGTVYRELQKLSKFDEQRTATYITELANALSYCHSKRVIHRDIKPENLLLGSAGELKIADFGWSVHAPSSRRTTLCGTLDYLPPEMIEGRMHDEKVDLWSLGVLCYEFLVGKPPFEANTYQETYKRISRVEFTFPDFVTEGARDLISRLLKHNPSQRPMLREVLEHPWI
# Sequence (Q9ULW0 1-43 partner limits assumed): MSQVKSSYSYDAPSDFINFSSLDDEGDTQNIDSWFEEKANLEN
# assay_text: AuroraA-TPX2 Homogeneous Time Resolved Fluorescent (HTRF) kinase assay
# Type: biochemical
# assay_conditions: average; ATP about 1 μM; read-out: AurA _IC50_ IP (uM Avg)
Listed below: IC50 values for each entry.

Some compounds with recorded IC50:
COc1cc2nccc(Oc3ccc(NC(=O)c4ccccc4Nc4cccc(F)c4)cc3)c2cc1OC [Example 13]; < 0.1 µM
COc1cnc2c(Oc3ccc(NC(=O)c4ccccc4NN4CCCCC4)cc3)ccnc2c1 [Example 20]; 0.5 to 1 µM
COc1cc2nccc(Oc3ccc(NC(=O)c4ccccc4Nc4ccccc4)cc3)c2cc1OC [Example 12]; < 0.1 µM
COc1cnc2c(Sc3ccc(NC(=O)c4ccccc4NN4CCCCC4)cc3)ccnc2c1 [Example 19]; 0.5 to 1 µM
COc1cnc2c(Sc3ccc(NC(=O)c4ccccc4NN4CCC(OC)CC4)cc3)ccnc2c1 [Example 22]; 1 to 5 µM

Task: // fetch IC50; item: COc1cnc2c(Oc3ccc(NC(=O)c4ccccc4Nc4ccccc4)cc3)ccnc2c1 [Example 15] ; system: AuroraA-TPX2 (Homo sapiens, UniProt O14965)
Result: < 0.1 µM

Task: // fetch IC50; item: COc1cnc2c(Oc3ccc(NC(=O)c4cc(F)ccc4Nc4ccccc4)cc3)ccnc2c1 [Example 14] ; system: AuroraA-TPX2 (Homo sapiens, UniProt O14965)
Result: < 0.1 µM

Task: // fetch IC50; item: COc1cc2nccc(Oc3ccc(NC(=O)c4ccccc4Nc4ccc(F)cc4)cc3)c2cc1OC [Example 11] ; system: AuroraA-TPX2 (Homo sapiens, UniProt O14965)
Result: < 0.1 µM
